Origin of measurements: patent US20180273528A1

target: DYRK1A (Homo sapiens); experiment: Cellular DYRK1 autophosphorylation assay in U2-OS cells; assay type: cell-based; parameters: full-length, wild-type human DYRK1A (NM_001396) with an HA tag; expressed in transfected cells; host or cells: human U2-OS osteosarcoma cells, transient transfection of a pcDNA3.1 plasmid; conditions: U2-OS cells transfected with HA-tagged human DYRK1A, 5 hours exposure; read-out: IC50 (μM) P-Ser520-Dyrk1A -Cell assay
ASSAY_READOUT: IC50 (µM)

The compound identified as Cc1nc2ccc(-c3cc(N)nc(N)c3)nc2n1C[C@@H](C)Oc1cccc(F)n1 (single isomer, unassigned) registered its IC50 at 0.026

Given item CCCCn1c(CC)nc2ccc(-c3cc(N)nc(N)c3)nc21 , the value recorded as its IC50 is 0.153

Just so you know, measured IC50 for Cc1nc2ccc(-c3cc(N)nc(N)c3)nc2n1CCOc1cccc(F)c1 came out at 0.053

For COc1cccc(O[C@H](C)Cn2c(C)nc3ccc(-c4cc(N)nc(N)c4)nc32)c1 (single isomer, unassigned) the compound record lists IC50 as 0.271

In plain terms, Cc1nc2ccc(-c3cc(N)nc(N)c3)nc2n1CCc1ccccc1 has a documented IC50 of 0.037

[I] Cc1nc2ccc(-c3cc(N)nc(N)c3)nc2n1CCOc1ccc2[nH]ccc2c1
[II] CCCc1nc2ccc(-c3cc(N)nc(N)c3)nc2n1C1CCCC1
Input: Given I and II , report the one with the higher recorded IC50. Identify your pick by its label.
Output: II
(II: 0.144 µM, I: 0.047 µM)
